Just for reference, ChEMBL document CHEMBL1139473 is where these values come from.

# study_target: Cholinesterases; ACHE & BCHE (Homo sapiens) (UniProt P06276+P22303)
# Sequence (P06276 whole entry, looked up): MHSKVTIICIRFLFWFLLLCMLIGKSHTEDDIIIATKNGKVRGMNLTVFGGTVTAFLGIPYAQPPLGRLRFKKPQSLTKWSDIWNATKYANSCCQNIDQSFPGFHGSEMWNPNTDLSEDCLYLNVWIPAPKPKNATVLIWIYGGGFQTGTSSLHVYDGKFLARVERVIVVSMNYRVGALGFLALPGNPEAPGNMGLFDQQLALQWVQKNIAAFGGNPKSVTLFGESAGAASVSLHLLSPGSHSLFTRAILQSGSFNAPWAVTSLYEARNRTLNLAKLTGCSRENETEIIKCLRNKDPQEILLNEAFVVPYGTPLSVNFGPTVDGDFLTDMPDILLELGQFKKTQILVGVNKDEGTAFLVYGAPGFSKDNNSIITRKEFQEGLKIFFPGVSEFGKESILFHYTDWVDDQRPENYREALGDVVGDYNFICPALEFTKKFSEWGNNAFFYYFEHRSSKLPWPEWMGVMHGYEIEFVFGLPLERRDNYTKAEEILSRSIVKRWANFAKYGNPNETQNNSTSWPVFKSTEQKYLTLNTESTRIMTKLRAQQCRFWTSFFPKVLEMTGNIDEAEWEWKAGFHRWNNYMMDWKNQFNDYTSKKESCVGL
# Sequence (P22303 whole entry, looked up): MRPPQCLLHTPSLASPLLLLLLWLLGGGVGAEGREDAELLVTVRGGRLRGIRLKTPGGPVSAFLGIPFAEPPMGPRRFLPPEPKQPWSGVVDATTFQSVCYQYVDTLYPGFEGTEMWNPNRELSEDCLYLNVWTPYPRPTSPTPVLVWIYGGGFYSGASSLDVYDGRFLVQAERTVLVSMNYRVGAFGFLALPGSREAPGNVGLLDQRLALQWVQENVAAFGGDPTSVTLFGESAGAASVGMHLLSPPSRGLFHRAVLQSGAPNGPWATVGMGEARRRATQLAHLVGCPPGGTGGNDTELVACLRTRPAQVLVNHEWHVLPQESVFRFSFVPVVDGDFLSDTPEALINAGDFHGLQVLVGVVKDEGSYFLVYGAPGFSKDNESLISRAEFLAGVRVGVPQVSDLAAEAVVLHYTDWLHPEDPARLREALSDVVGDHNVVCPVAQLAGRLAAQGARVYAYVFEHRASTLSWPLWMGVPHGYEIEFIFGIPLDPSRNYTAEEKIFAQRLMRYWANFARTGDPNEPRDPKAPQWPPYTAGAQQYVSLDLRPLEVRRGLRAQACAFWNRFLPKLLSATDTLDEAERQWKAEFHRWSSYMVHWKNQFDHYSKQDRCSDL
# protocol: Selectivity for human BChE over human AChE
# Assay type: protein assay

[
  {
    "smiles_str": "O=C(CCc1c[nH]c2ccccc12)NCCCCCCNc1c2c(nc3cc(Cl)ccc13)CCCC2",
    "study_target": "Cholinesterases; ACHE & BCHE (Homo sapiens) (UniProt P06276+P22303)",
    "Ratio IC50": 0.02
  },
  {
    "smiles_str": "O=C(Cc1c[nH]c2ccc(Br)cc12)NCCCCCCCNc1c2c(nc3cc(Cl)ccc13)CCCC2",
    "study_target": "Cholinesterases; ACHE & BCHE (Homo sapiens) (UniProt P06276+P22303)",
    "Ratio IC50": 0.14
  },
  {
    "smiles_str": "O=C(CCCc1c[nH]c2ccccc12)NCCCCCNc1c2c(nc3cc(Cl)ccc13)CCCC2",
    "study_target": "Cholinesterases; ACHE & BCHE (Homo sapiens) (UniProt P06276+P22303)",
    "Ratio IC50": 0.04
  },
  {
    "smiles_str": "O=C(CCc1c[nH]c2ccccc12)NCCCCCCCNc1c2c(nc3cc(Cl)ccc13)CCCC2",
    "study_target": "Cholinesterases; ACHE & BCHE (Homo sapiens) (UniProt P06276+P22303)",
    "Ratio IC50": 0.22
  },
  {
    "smiles_str": "O=C(Cc1c[nH]c2ccccc12)NCCCCCCCNc1c2c(nc3cc(Cl)ccc13)CCCC2",
    "study_target": "Cholinesterases; ACHE & BCHE (Homo sapiens) (UniProt P06276+P22303)",
    "Ratio IC50": 0.01
  }
]
